Listed below: IC50 values for each entry.
Target: human P2X7 receptor (Homo sapiens)
Sequence (Q99572 whole entry): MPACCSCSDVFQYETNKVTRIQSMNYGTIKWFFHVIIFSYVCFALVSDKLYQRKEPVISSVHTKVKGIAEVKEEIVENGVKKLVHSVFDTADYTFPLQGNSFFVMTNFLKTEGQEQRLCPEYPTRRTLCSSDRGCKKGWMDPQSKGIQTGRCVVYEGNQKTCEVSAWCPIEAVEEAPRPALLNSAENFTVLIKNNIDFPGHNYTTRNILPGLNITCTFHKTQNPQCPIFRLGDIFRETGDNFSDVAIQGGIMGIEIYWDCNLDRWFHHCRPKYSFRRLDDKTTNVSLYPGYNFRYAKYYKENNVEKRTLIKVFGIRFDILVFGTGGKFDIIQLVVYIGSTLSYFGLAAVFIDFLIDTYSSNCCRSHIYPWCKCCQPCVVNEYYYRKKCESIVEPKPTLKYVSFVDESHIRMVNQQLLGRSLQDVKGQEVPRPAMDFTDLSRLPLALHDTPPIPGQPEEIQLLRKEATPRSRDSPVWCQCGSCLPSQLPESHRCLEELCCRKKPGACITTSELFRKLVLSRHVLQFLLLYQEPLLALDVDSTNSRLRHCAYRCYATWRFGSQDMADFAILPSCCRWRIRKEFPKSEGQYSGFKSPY
Experiment: Radioligand competition binding assay using [^3H]A804598
outcomeMeasure: IC50 (nM)

| compound | number |
| --- | --- |
| CN1C(=O)CC[C@H]1C(=O)NCc1cccc(C(F)(F)F)c1Cl [GSK1482160, reference compound] | 8.65 |
| O=C(NCc1cccc(C(F)(F)F)c1Cl)[C@@H]1CCC(=O)N1C/C=C/I [TZ6019] | 12.9 |
